- System: Nrf2 (ARE-luciferase reporter) in DLD-1/ARE-E2 cells
- procedure summary: Nrf2 activation cell-based assay, ARE-luciferase reporter, DLD-1/ARE-E2 cell line
- Design: species or system Human
- measurement setup: 48 hr stimulation; DLD-1/ARE-E2; luciferase fold change over DMSO control
- Experimental: Human cancer cell line DLD-1 and breast cancer cell line MCF7 reporter stable cell lines were generated by transfection with a firefly luciferase reporter construct harboring the luciferase cDNA cloned downstream of eight catenated copies of the antioxidant response element (ARE: SEQ ID NO.:1). […] Luciferase induction in the compound-treated cells was calculated as fold change over the baseline activity detected in control cultures treated with DMSO-containing media.
Where a name gives a salt, the structure may show the parent alone.

compound	Maximum Nrf2 Activation Fold Change
COC(=O)/C=C/C(=O)OC [DMF, dimethyl fumarate, reference compound]	13
COC(=O)/C=C/C(=O)O [MMF, monomethyl fumarate, reference compound]	14
COC(=O)/C=C/C(=O)O[Si](C)(C)OC(=O)/C=C/C(=O)OC	43
COC(=O)/C=C/C(=O)OC[Si](OC)(OC)OC	48

###

This section presents molecules with their documented Concentration at maximum Nrf2 activation fold change (@ [uM]) values.
- Tested on: Nrf2 (ARE-luciferase reporter) in DLD-1/ARE-E2 cells
- procedure summary: Nrf2 activation cell-based assay, ARE-luciferase reporter, DLD-1/ARE-E2 cell line
- Parameters: species or system Human
- measurement setup: 48 hr stimulation; DLD-1/ARE-E2
Where a name gives a salt, the structure may show the parent alone.
property name: Concentration at maximum Nrf2 activation fold change (@ [uM]) (µM)

molecule	units	measurement
COC(=O)/C=C/C(=O)OC[Si](OC)(OC)OC [Compound 12]	µM	375
COC(=O)/C=C/C(=O)OC [DMF, dimethyl fumarate, reference compound]	µM	47
COC(=O)/C=C/C(=O)O[Si](C)(C)OC(=O)/C=C/C(=O)OC [Compound 11]	µM	1000
COC(=O)/C=C/C(=O)O [MMF, monomethyl fumarate, reference compound]	µM	1000

###

This section presents compounds with their documented Maximum Nrf2 Activation Fold Change values.
- System: Nrf2 (ARE-luciferase reporter) in MCF7/ARE-D3 cells
- procedure summary: Nrf2 activation cell-based assay, ARE-luciferase reporter, MCF7/ARE-D3 cell line
- Set-up: species or system Human
- measurement setup: 48 hr stimulation, luciferase fold change over DMSO control
Counter-ions that a name gives are not always drawn.

compound	Maximum Nrf2 Activation Fold Change
COC(=O)/C=C/C(=O)OC[Si](OC)(OC)OC	65
COC(=O)/C=C/C(=O)O[Si](C)(C)OC(=O)/C=C/C(=O)OC	126
COC(=O)/C=C/C(=O)OC [DMF, dimethyl fumarate, reference compound]	45
COC(=O)/C=C/C(=O)O [MMF, monomethyl fumarate, reference compound]	88
